Every entry's value here was drawn from the supplement of paper PMC11061612.

System: SNU-C2B (Colorectal Carcinoma)
Assay: combination Emax (second highest fraction inhibited in the dose matrix, 72 h); higher = more inhibition; extreme values may be limits of the assay
reported-endpoint: combination Emax
Provide a numeric answer; units are not to be included.

Qu. Look up combination Emax of COc1nnc2ccc(N3CCC(c4ccc(OCCN5CCN(C)C(=O)[C@H]5C)cc4)CC3)nn12 [AZD5153] + C[C@@H]1COCCN1C2=NC(=NC(=C2)C3(CC3)[S@](=N)(=O)C)C4=C5C=CNC5=NC=C4 [AZD6738] (first compound max 1 µM, 7x7, partner max 10 µM) and report it.
Ans. 0.658

Qu. Look up combination Emax of Cc1c2c(nn1C)CSCc1cc(n(C)n1)CSc1cc(c3ccccc3c1)OCCCc1c(C(=O)O)n(C)c3c-2c(Cl)ccc13 [AZD5991] + Cc1cc2ncnn2cc1Nc1ncc2c(n1)n(C1CCOCC1)c(=O)n2C [AZD7648] (first compound max 1 µM, 7x7, partner max 10 µM) and report it.
Ans. 0.158
